Recorded measurements of EC50 (nM), PC3 co-culture, one per entry
biological target: CD137 on Jurkat reporter cells (Promega kit CS196005) (UniProt Q07011); assay: cell-based or functional assay
Sequence (Q07011 24-255 limits assumed): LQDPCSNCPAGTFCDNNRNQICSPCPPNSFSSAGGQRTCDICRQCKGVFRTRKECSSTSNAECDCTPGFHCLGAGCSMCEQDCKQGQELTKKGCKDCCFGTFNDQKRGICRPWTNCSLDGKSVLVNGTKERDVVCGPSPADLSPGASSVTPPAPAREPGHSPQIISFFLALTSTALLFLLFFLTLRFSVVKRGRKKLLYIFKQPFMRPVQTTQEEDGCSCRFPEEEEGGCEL
Starred links: 1 amine or outer side, 2 acyl side, 3 side chain; linkers in the order of their positions; H or OH if unused. Positions of bridges follow the written chain, without caps; N, C: chain ends. Non-standard residues stand in square brackets, D forms with d. Chains are numbered I, II in the order given. No end group written: not given here. *: point of attachment. TATA = O=C(CC[*:1])N1CN(C(=O)CC[*:2])CN(C(=O)CC[*:3])C1; Dip = N[C@H](C(=O)O)C(c1ccccc1)c1ccccc1; Hyp = O=C(O)[C@@H]1C[C@@H](O)CN1; hArg = N=C(N)NCCCC[C@H](N)C(=O)O; tBuAla = CC(C)(C)C[C@H](N)C(=O)O; dK(PYA) = not defined here; NMeA = CN[C@@H](C)C(=O)O; Nle = CCCC[C@H](N)C(=O)O; Pent4ynoyl = C#CCCC(=O)*
Write the answer as a number in nM, unit excluded.

Value of EC50 (nM), PC3 co-culture reported for the binder BCY13275 (linker I:4-I:11-I:18, II:1-II:8-II:15 via TATA; not fully specified (N-terminus, bridges); also: linker joins chain 1 to two chain 2 copies via PYA triazoles) peptide 1: [NMeA][hArg]DC[Hyp]LVNPLCLHP[dD]W[hArg]C peptide 2: Ac-C[tBuAla]PE[dK](Pent4ynoyl)PYCFADPY[Nle]CA is 0.08

Lab book: EC50 (nM), PC3 co-culture of BCY12973 (linker I:4-I:11-I:18, II:1-II:8-II:15 via TATA; linker I:19-II:5 via N‑(acid-PEG3)‑N‑bis(PEG3-azide); reading uncertain; also: two CD137 bicycles per complex (EphA2:CD137 1:2)) peptide 1: Ac-A[hArg]DC[Hyp]LVNPLCLHP[dD]W[hArg]CK peptide 2: Ac-C[tBuAla]PE[dK(PYA)]PYCFADPY[Nle]CA noted as 0.16

The binder listed as BCY13047 (linker I:4-I:11-I:18, II:1-II:8-II:15 via TATA; not fully specified (N-terminus, bridges); reading uncertain; also: two CD137 bicycles per complex (EphA2:CD137 1:2)) peptide 1: A[hArg]DC[Hyp]LVNPLCL[Dip]P[dD]WTC peptide 2: Ac-C[tBuAla]PE[dK(PYA)]PYCFADPY[Nle]CA shows EC50 (nM), PC3 co-culture equal to 0.07

Each recorded value in this set is attributed to patent US20230129258A1.
